Parameter: inhibition. Scope: all listed entries.
# measurement-target: Glucose transporter (Leishmania mexicana) (UniProt O61059)
# measurement-notes: ST_JUDE_LEISH: Cytotoxicity at 2uM final concentration against transgenic Leishmania Mexicana promastigotes LmGT2 that are glucose transport deficient and complemented with the L. Mexicana glucose transporter 2. Activity is measured by DNA content using SYBR green in vitro
# Format: functional
Supply the numeric figure in %, leaving out any unit text.

Some compounds with known inhibition results, for comparison:
INSERT INTO results (compound, measurement_target, reported) VALUES
  ('CC[C@H]1CN2CC[C@H]1C[C@H]2[C@H](O)c1cc(-c2ccc3ccccc3c2)nc2ccc(OC)cc12', 'Glucose transporter (Leishmania mexicana) (UniProt O61059)', 3.26),
  ('COc1cccc(C(=O)C2CC2CN2CC=C(c3c(C)[nH]c4ccccc34)CC2)c1 (stereo not given)', 'Glucose transporter (Leishmania mexicana) (UniProt O61059)', 4.19),
  ('Cc1[nH]c2c(C)cc(NS(C)(=O)=O)cc2c1C1CCN(CC2CCN(C(=O)/C=C/c3ccc(Cl)c(Cl)c3)CC2)CC1', 'Glucose transporter (Leishmania mexicana) (UniProt O61059)', 4.65),
  ('O=C(NC1CCC(CN2CCC(c3c[nH]c4ccccc34)CC2)CC1)c1cn(Cc2ccccc2)c2ccccc12 (stereo not given)', 'Glucose transporter (Leishmania mexicana) (UniProt O61059)', -1.09),
  ('CN1CC=C(c2c[nH]c3ccc(-c4ccccc4)cc23)CC1', 'Glucose transporter (Leishmania mexicana) (UniProt O61059)', 5.76);

The compound O=C(NC1CCC(CN2CCC(c3c[nH]c4ccccc34)CC2)CC1)c1csc(-c2ccc(C(F)(F)F)cc2Cl)n1 (stereo not given) showed inhibition equal to 10.2

# compound CCCCCCC(C)c1cc(O)c2c(c1)OC(C)(C)c1ccncc1-2 (stereo not given) ; its inhibition = -1.19

Reported inhibition ( S=C(NCCc1ccc(Cl)cc1)N1CCC(CN2CCC(c3c[nH]c4ccccc34)CC2)CC1 ) = 1.67

The compound Cc1[nH]c2ccccc2c1C1=CCN(CCN2CCOc3c(Br)cccc3C2=O)CC1 showed inhibition equal to 1.55

Memo: CC[C@H]1CN2CC[C@H]1C[C@H]2[C@H](O)c1cc(-c2ccccc2F)nc2ccc(OC)cc12 , reported inhibition: 0.34

// recorded inhibition for COc1ccc2[nH]cc(C3CCN(Cc4ccc(NC(=O)c5ccc(-c6ccccc6)cc5)cc4)CC3)c2c1 : 3.28

What the record says about CC(=O)Nc1ccc(OCCN(CC(F)(F)F)c2ccc(C#N)cc2C(F)(F)F)cc1 : inhibition is 0.98

get_value(item= CC(=O)N(Cc1ccc(-c2ccc(CNCCc3ccccc3)cc2)cc1)C1CCN(Cc2ccccc2)CC1 , readout=inhibition) returns 1.11

Short answer for CCN(CC)CCN1C(=O)C(O)(c2ccccc2Cl)c2c1cc(C(N)=O)cc2C(F)(F)F (stereo not given) : inhibition was 2.69

Lookup result for CN(c1cc(NC(=O)c2cccs2)ccn1)C1CCN(Cc2cccc(C#N)c2)CC1 ; measured inhibition: 8.95

// field: inhibition; key: Cc1ccc(CC(C)NCC(O)c2cccc(C(F)(F)F)c2)cc1F (stereo not given) ; value = 5.67

// sample COc1ccc(CC(C)NCC(O)c2ccc(Cl)c(Cl)c2)cc1 (stereo not given) , its inhibition was -2.6

// data source = ChEMBL document CHEMBL3433997
